Target Or System: T1, CD79b endogenously expressed on the cell surface (malignant B cell lines, normal B cells in PBMC, CLL … (human, UniProt P40259 29-229))
T1 construct: whole, on cells; On cells CD79b stands in the B-cell receptor complex with CD79a and surface Ig; also called cell surface CD79b; endogenous CD79b
T1 sequence (looked up): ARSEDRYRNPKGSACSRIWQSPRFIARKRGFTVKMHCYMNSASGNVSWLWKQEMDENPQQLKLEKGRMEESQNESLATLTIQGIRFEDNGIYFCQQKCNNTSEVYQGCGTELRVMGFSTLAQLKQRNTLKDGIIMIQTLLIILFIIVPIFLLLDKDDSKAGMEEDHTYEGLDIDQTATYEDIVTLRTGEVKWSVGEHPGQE
Assay Procedure: flow cytometry on PBMC of Donor 2235, B cells marked with CD19-BV421; anti-human IgG1-PE; MFI (PE); table under the graph

[
  {
    "Binder": "ch44G2 (antibody, human IgG1, kappa, V domains shown, Rabbit/human chimeric IgG1 kappa; also called chimeric 44G2) VH: QSVRETGGGLVQPGGSLKLSCKASGFTINIDYWISWVRQAPGKGLEWIGIIDPGDGTTYFAIWVSGRFTISFDNTQNTVDLQMNSLTAADTATYFCVREFSASAYQYDLWGPGTLVTVSS VL: DLVMTQTPSSVSAAVGGTVSINCRASEDIENYLAWYQQKPGQPPKLLIYRASTLSSGVSSRFSGSGSGTEFTLTISGVQPDDAATYYCQQGYRNSNVDNPFGGGTEMVVKR",
    "EC50": "0.727 nM"
  },
  {
    "Binder": "ch23D8 (antibody, human IgG1, kappa, V domains shown, Rabbit/human chimeric IgG1 kappa; also called chimeric 23D8) VH: QSLEESGGGLVTPGGTLTLTCTVSGLSLSSNAINWVRQAPGKGLEWIGMIYSGGRIEYASWAKGRFTISKTSTTVDLKITSPTTEDTATYFCAKGMSPSAHSSDIWGPGTLVTVSA VL: AYDMTQTPASVEVAVGGTVTIKCQASQSISDNLSWYQQKPGQPPKLLIYDASDLASGVPSRFSGSGSGTEFTLTISDLEPADAATYYCQQDWISSNVDNTFGGGTEVVVKR",
    "EC50": "0.921 nM"
  },
  {
    "Binder": "ch48H10 (antibody, human IgG1, kappa, V domains shown, Rabbit/human chimeric IgG1 kappa; also called chimeric 48H10) VH: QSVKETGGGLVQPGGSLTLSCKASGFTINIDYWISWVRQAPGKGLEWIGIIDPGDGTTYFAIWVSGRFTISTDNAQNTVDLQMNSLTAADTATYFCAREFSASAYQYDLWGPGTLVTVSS VL: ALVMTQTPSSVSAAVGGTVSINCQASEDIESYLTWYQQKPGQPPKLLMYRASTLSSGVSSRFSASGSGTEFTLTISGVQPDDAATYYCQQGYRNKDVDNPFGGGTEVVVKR",
    "EC50": "0.272 nM"
  },
  {
    "Binder": "polatuzumab (antibody, V domains shown) VH: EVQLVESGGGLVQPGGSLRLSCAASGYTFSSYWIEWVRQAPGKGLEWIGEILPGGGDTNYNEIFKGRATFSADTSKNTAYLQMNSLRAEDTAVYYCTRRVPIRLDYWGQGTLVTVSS VL: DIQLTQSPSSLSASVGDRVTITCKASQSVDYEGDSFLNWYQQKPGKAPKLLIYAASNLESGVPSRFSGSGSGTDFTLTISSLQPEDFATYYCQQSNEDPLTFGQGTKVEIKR",
    "EC50": "1.98 nM"
  }
]
